Biological target: T1, C5a receptor expressed on the surface of human PMNs (human, UniProt P21730 1-350)
T1 sequence (looked up): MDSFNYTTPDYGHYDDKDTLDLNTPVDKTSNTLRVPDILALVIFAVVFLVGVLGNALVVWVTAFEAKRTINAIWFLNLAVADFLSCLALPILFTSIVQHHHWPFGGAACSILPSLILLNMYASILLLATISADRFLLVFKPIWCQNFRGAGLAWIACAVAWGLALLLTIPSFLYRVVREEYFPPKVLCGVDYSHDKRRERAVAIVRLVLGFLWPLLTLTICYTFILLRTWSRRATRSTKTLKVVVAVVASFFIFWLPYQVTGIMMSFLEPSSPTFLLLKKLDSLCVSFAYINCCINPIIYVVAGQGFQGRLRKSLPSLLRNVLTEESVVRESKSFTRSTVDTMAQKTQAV
Test: cell-based or functional assay
Non-standard residues stand in square brackets, D forms with d. No end group written: not given here.
measurement_name: smooth muscle contraction of human umbilical artery, EC50
Give the figure together with its unit, number first.

binder	result
natural C5a (ligand, UniProt P01031 678-751, looked up, C5a is a fragment of it) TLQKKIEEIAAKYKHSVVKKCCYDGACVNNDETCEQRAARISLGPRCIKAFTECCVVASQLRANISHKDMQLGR	2 nM
YSFKPMPL[dA]R (synthetic peptide; also called C5a agonist) [C5a C-terminal decapeptide agonist analog YSFKPMPLaR]	10 nM
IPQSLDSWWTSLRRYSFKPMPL[dA]RG (synthetic peptide) [IPQSLDSWWTSLRRYSFKPMPLaRG]	6780 nM
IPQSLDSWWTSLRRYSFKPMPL[dA]R (synthetic peptide; also called double-Arg-linked C5a-active construct) [IPQSLDSWWTSLRRYSFKPMPLaR]	161 nM
YSFKPMPL[dA]RRRIPQSLDSWWTSL (synthetic peptide) [YSFKPMPLa[…]]	39400 nM

Query (binder): IPQSLDSWWTSLRVRRYSFKPMPL[dA]R (synthetic peptide; also called RVRR-containing C5a-active construct) [IPQSLDSWWTSLRVRRYSFKPMPLaR] ; field requested: smooth muscle contraction of human umbilical artery, EC50
180 nM

# repeat for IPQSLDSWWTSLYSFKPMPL[dA]R (synthetic peptide) [IPQSLDSWWTSLYSFKPMPLaR]
210 nM
